These entries and their values trace back to patent US20070213359A1.

- System under test: Ghrelin receptor (Homo sapiens)
- Test protocol: Receptor Selection and Amplification Technology (R-SAT) assay
- Format: cell-based
- Parameters: expressed in transfected cells; host or cells: NIH3T3
- Test context: negative logarithm of ligand concentration causing 50% inhibition of constitutive receptor response; transfected NIH3T3 cells; '—' not defined (nd used separately); read-out: RSAT pIC50 (converted)
Measured IC50 values are reported for all entries that follow.

# Compound, Measurement label, Assay value
rows = [
    ("COc1ccccc1C1CCN(CCCn2cc(C(C)=O)c3cccc(OC)c32)CC1", "IC50", "0.0398 µM"),
]

Asked: // returns reported IC50 for input CC(=O)c1cn(CCCN2CCC(Oc3ccccc3Cl)CC2)c2cc(Br)ccc12
Given back: 5.01 µM

----------
- System under test: Ghrelin receptor (Homo sapiens)
- Test protocol: Receptor Selection and Amplification Technology (R-SAT) assay
- Assay type: cell-based
- Design: expressed in transfected cells; host or cells: NIH3T3
- Test context: negative logarithm of ligand concentration causing 50% inhibition of constitutive receptor response; transfected NIH3T3 cells; '—' not defined (nd used separately); read-out: RSAT pIC50 (converted)
Measurement label: IC50 (µM)
Return type: number; implicit unit µM.

# Compound, System under test, IC50 (µM)
rows = [
    ("CC(=O)CCc1cn(CCCN2CCC(c3nc4ccccc4s3)CC2)c2ccccc12", "Ghrelin receptor (Homo sapiens)", 2.51),
    ("CC(=O)CCc1cn(CCCN2C3CCC2CC(OCC2CC2)C3)c2ccccc12 (stereo not drawn)", "Ghrelin receptor (Homo sapiens)", 3.16),
]

Asked: Need IC50, item CCc1cccc2c(C(C)=O)cn(CCCN3CCN(c4ncc(C(F)(F)F)cc4Cl)CC3)c12
Given back: 0.158

----------
- System under test: Ghrelin receptor (Homo sapiens, UniProt Q92847)
- Sequence (Q92847 whole entry): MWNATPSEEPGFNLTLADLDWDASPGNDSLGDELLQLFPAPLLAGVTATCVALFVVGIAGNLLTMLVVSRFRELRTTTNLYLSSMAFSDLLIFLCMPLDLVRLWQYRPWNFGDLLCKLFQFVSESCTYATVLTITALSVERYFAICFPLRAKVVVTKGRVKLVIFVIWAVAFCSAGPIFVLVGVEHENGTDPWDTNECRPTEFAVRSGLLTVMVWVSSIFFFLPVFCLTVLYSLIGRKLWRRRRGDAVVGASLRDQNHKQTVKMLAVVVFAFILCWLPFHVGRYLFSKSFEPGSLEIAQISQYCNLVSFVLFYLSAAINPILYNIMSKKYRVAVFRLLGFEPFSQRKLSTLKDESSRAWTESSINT
- Test protocol: Receptor Selection and Amplification Technology (R-SAT) assay
- Format: cell-based
- Design: expressed in transfected cells; host or cells: NIH3T3
- Test context: read-out: RSAT Eff(%)
Measurement label: Emax
For clarity, give the value followed by its unit.

Would you please look over these solved cases?
# Molecule, System under test, Emax
data = [
    ("COc1cccc2c(C(=O)C3CC3)cn(CCCN3C4CCC3CC(CCc3ccccc3)C4)c12 (stereo not shown)", "Ghrelin receptor (Homo sapiens, UniProt Q92847)", "109%"),
    ("COc1cccc2c(C(=O)NCc3cccc(Cl)c3)cn(CCCN3CCN(CCOc4ccc(Cl)cc4)CC3)c12", "Ghrelin receptor (Homo sapiens, UniProt Q92847)", "104%"),
    ("COc1cccc2c(C(C)=O)cn(CCCN3CCN(CC(=O)N4CCOCC4)CC3)c12", "Ghrelin receptor (Homo sapiens, UniProt Q92847)", "37%"),
]

Asked: I am curious: what Emax value has been reported for COc1cccc2c(C(=O)NCC(C)C)cn(CCCN3CCC(c4nc(-c5cccnc5)no4)CC3)c12 ?
Given back: 93%

Asked: Look at this molecule and give its reported Emax. COc1cccc2c(C(=O)c3ccccc3)cn(CCCN3CCCC(Cc4ccccc4Cl)C3)c12 (stereo not shown)
Given back: 82%

Asked: Could you tell me which Emax is on file for COc1cccc2c(C(=O)NCC(C)C)cn(CCCN3CCC4(CC3)CC(=O)c3ccccc3O4)c12 ?
Given back: 115%

Asked: Emax for COc1cccc2c(C(=O)NCc3cccc(Cl)c3)cn(CCCN3CCC(CCOc4ccc(Cl)cc4)CC3)c12 ?
Given back: 46%

Asked: What does the data say about its Emax? Entry: COc1cccc2c(C(C)=O)cn(CC(C)CN3CCC4(CC3)CC(=O)c3ccccc3O4)c12 (stereo not shown)
Given back: 55%

Asked: Query (molecule): CC(=O)c1cn(CCCN2CCCN(Cc3ccc(F)cc3)CC2)c2c(C)cccc12 ; field requested: Emax
Given back: 95%

Asked: I would be grateful if you could share the reported Emax for COc1cccc2c(C(=O)NCC(C)C)cn(CCCN3C4CCC3CC(CC(=O)c3ccc(Cl)cc3)C4)c12 (stereo not shown) .
Given back: 128%

Asked: Which Emax value belongs to COc1cccc2c(C(=O)NCc3cccc(Cl)c3)cn(CCCN3CCC(c4nc5ccccc5s4)CC3)c12 ?
Given back: 112%

Asked: May I ask what Emax has been recorded for CCc1cccc2c(C(C)=O)cn(CCCN3CCC(c4nc(-c5cccnc5)no4)CC3)c12 ?
Given back: 61%

Asked: Item CC(=O)c1cn(CCCN2C3CCC2CC(CC(=O)c2ccc(Cl)cc2)C3)c2c(C#N)cccc12 (stereo not shown) has what recorded Emax?
Given back: 31%

Asked: What does the data say about its Emax? Entry: COc1cccc2c(C(=O)NCc3cccc(Cl)c3)cn(CCCN3CCCN(CCc4ccccc4)CC3)c12
Given back: 125%

Asked: Which measured Emax value corresponds to COc1cccc2c(C(=O)C3CC3)cn(CCCN3CCCC(Oc4ccc(Cl)cc4)C3)c12 (stereo not shown) ?
Given back: 37%

Asked: Recorded Emax for CC(=O)c1cn(CCCN2CCC(C(=O)c3ccccc3)CC2)c2cc(Br)ccc12 , please?
Given back: 36%
